Attribute: IC50
- system-tested: PE-labeled human PD-L1-Ig binding to Jurkat cell line over-expressing human PD-1 (Jurkat-PD-1) (Homo sapiens, UniProt Q15116)
- Construct: expressed in transfected cells; host or cells: Jurkat
- Sequence (Q15116 25-288): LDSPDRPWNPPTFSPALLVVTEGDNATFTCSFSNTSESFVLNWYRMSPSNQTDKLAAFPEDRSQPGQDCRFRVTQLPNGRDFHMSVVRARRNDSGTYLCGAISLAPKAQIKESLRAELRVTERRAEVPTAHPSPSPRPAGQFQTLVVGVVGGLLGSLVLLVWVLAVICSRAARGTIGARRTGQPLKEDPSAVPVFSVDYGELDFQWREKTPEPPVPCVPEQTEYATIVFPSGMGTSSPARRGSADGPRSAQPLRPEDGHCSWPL
- experimental-protocol: Jurkat-PD-1 Cell Binding High-Content Screening Assay (CBA): Method 1
- run-conditions: Jurkat-hPD-1 cells, PE-labeled PD-L1-Ig 20 nM final; read-out: Jurkat HPDL1 PD1 IC50 (uM) (Method 1)
Bridge positions count the residues as written; N and C are the ends. Square brackets hold non-standard residues; d marks the D form. Peptide text beside a SMILES is read from it. Bip = N[C@@H](Cc1ccc(-c2ccccc2)cc1)C(=O)O; 4Pal = N[C@@H](Cc1ccncc1)C(=O)O; NMeA = CN[C@@H](C)C(=O)O; Dab = NCC[C@H](N)C(=O)O; Dap = NC[C@H](N)C(=O)O
Your answer is read as µM, so omit the unit and give the number.

Examples with answers:
compound="CC[C@H](C)[C@@H]1NC(=O)[C@H](Cc2ccc(-c3ccccc3)cc2)NC(=O)[C@H](CC(C)C)NC(=O)[C@H](Cc2c[nH]c3ccccc23)NC(=O)[C@H](CC(=O)O)NC(=O)[C@H](Cc2ccc(O)cc2)NC(=O)[C@H](Cc2ccccc2)NC(=O)CSC[C@@H](C(=O)NCC(N)=O)NC(=O)[C@H](CO)NC(=O)[C@H](C(C)C)NC(=O)[C@H](CC(C)C)NC(=O)[C@H](CCN)NC(=O)[C@@H](CC(C)C)NC(=O)[C@H](C)N(C)C1=O [Compound 1511] ({CH2CO}-FYDWL[Bip]I[NMeA][dL][Dab]LVSCG-NH2; thioether N-14)" measurement_unit=µM value_observed=0.01
compound="CC(C)C[C@@H]1NC(=O)[C@H](CCCCN)NC(=O)[C@@H](CC(C)C)NC(=O)[C@H](C)N(C)C(=O)[C@H](C(C)C)NC(=O)[C@H](Cc2ccc(-c3ccccc3)cc2)NC(=O)[C@H](C(C)C)NC(=O)[C@H](Cc2c[nH]c3ccccc23)NC(=O)[C@H](CC(=O)O)NC(=O)[C@H](Cc2ccc(O)cc2)NC(=O)[C@H](CC(N)=O)NC(=O)CSC[C@@H](C(=O)N[C@@H](C)C(N)=O)NC(=O)[C@H]([C@@H](C)O)NC(=O)[C@H](C(C)C)NC1=O [Compound 1299] ({CH2CO}-NYDWV[Bip]V[NMeA][dL]KLVTCA-NH2; thioether N-14)" measurement_unit=µM value_observed=0.02
compound="CC(C)C[C@@H]1NC(=O)[C@H](Cc2c[nH]c3ccccc23)NC(=O)[C@H](CC(=O)O)NC(=O)[C@H](Cc2ccncc2)NC(=O)[C@H](CN)NC(=O)CSC[C@@H](C(=O)N[C@@H](C)C(N)=O)NC(=O)[C@H](CO)NC(=O)[C@H](C(C)C)NC(=O)[C@H](CC(C)C)NC(=O)[C@H](CC(N)=O)NC(=O)[C@@H](C)NC(=O)[C@H](C)N(C)C(=O)[C@H](C(C)C)NC(=O)[C@H](Cc2ccc(-c3ccccc3)cc2)NC1=O [Compound 1561] ({CH2CO}-[Dap][4Pal]DWL[Bip]V[NMeA][dA]NLVSCA-NH2; thioether N-14)" measurement_unit=µM value_observed=0.03

Which value of IC50 has been reported for CC(C)C[C@@H]1NC(=O)[C@H](Cc2c[nH]c3ccccc23)NC(=O)[C@H](CC(=O)O)NC(=O)[C@H](Cc2ccc(O)cc2)NC(=O)[C@H](Cc2ccccc2)NC(=O)CSC[C@@H](C(=O)N[C@@H](C)C(N)=O)NC(=O)[C@H](CO)NC(=O)[C@H](C(C)C)NC(=O)[C@H](CC(C)C)NC(=O)[C@H](CC(N)=O)NC(=O)[C@@H](CCC(=O)O)NC(=O)[C@H](C)N(C)C(=O)[C@H](C(C)C)NC(=O)[C@H](Cc2ccc(-c3ccccc3)cc2)NC1=O [Compound 1820] ({CH2CO}-FYDWL[Bip]V[NMeA][dE]NLVSCA-NH2; thioether N-14) in the records?
0.48

---

- system-tested: PE-labeled human PD-L1-Ig binding to Jurkat cell line over-expressing human PD-1 (Jurkat-PD-1) (Homo sapiens, UniProt Q15116)
- Construct: expressed in transfected cells; host or cells: Jurkat
- experimental-protocol: Jurkat-PD-1 Cell Binding High-Content Screening Assay (CBA): Method 1
- run-conditions: Jurkat-hPD-1 cells, PE-labeled PD-L1-Ig 20 nM final; read-out: Jurkat HPDL1 PD1 IC50 (uM) (Method 1)
Bridge positions count the residues as written; N and C are the ends. Square brackets hold non-standard residues; d marks the D form. Peptide text beside a SMILES is read from it. Bip = N[C@@H](Cc1ccc(-c2ccccc2)cc1)C(=O)O; Bta = N[C@@H](Cc1csc2ccccc12)C(=O)O; NMeA = CN[C@@H](C)C(=O)O
measured-endpoint: IC50 (µM)
Your answer is read as µM, so omit the unit and give the number.

Which value of IC50 has been reported for CC(C)C[C@@H]1NC(=O)CSC[C@@H](C(=O)N[C@@H](C)C(N)=O)NC(=O)[C@H](CO)NC(=O)[C@H](C(C)C)NC(=O)[C@H](CC(C)C)NC(=O)[C@H](CCCNC(=N)N)NC(=O)[C@H](Cc2csc3ccccc23)NC(=O)[C@H](C)N(C)C(=O)[C@H](CCCNC(=N)N)NC(=O)[C@H](Cc2ccc(-c3ccccc3)cc2)NC(=O)[C@H](C(C)C)NC(=O)[C@H](Cc2c[nH]c3ccccc23)NC(=O)[C@H](CC(=O)O)NC(=O)[C@H](Cc2ccc(O)cc2)NC1=O [Compound 1041] ({CH2CO}-LYDWV[Bip]R[NMeA][Bta]RLVSCA-NH2; thioether N-14) in the records?
0.31

---

Attribute: IC50
- system-tested: PE-labeled human PD-L1-Ig binding to Jurkat cell line over-expressing human PD-1 (Jurkat-PD-1) (Homo sapiens)
- Construct: expressed in transfected cells; host or cells: Jurkat
- experimental-protocol: Jurkat-PD-1 Cell Binding High-Content Screening Assay (CBA): Method 1
- run-conditions: Jurkat-hPD-1 cells, PE-labeled PD-L1-Ig 20 nM final; read-out: Jurkat HPDL1 PD1 IC50 (uM) (Method 1)
Bridge positions count the residues as written; N and C are the ends. Square brackets hold non-standard residues; d marks the D form. Peptide text beside a SMILES is read from it. Bip = N[C@@H](Cc1ccc(-c2ccccc2)cc1)C(=O)O; Bta = N[C@@H](Cc1csc2ccccc12)C(=O)O; NMeA = CN[C@@H](C)C(=O)O
Your answer is read as µM, so omit the unit and give the number.

compound="CC(C)C[C@@H]1NC(=O)[C@H](CCCNC(=N)N)NC(=O)[C@H](Cc2csc3ccccc23)NC(=O)[C@H](C)N(C)C(=O)[C@H](CCCNC(=N)N)NC(=O)[C@H](Cc2ccc(-c3ccccc3)cc2)NC(=O)[C@H](C(C)C)NC(=O)[C@H](Cc2c[nH]c3ccccc23)NC(=O)[C@H](CC(=O)O)NC(=O)[C@H](Cc2ccc(O)cc2)NC(=O)[C@H](CCC(N)=O)NC(=O)CSC[C@@H](C(=O)NCC(N)=O)NC(=O)[C@H](CO)NC(=O)[C@H](C(C)C)NC1=O [Compound 1028] ({CH2CO}-QYDWV[Bip]R[NMeA][Bta]RLVSCG-NH2; thioether N-14)" measured_endpoint=IC50 value_observed=0.11

Now look at this one.
Which value of IC50 has been reported for CC(C)C[C@@H]1NC(=O)[C@H](Cc2c[nH]c3ccccc23)NC(=O)[C@H](CC(=O)O)NC(=O)[C@H](Cc2ccc(O)cc2)NC(=O)[C@H](Cc2ccccc2)NC(=O)CSC[C@@H](C(=O)N[C@@H](C)C(N)=O)NC(=O)[C@H]([C@@H](C)O)NC(=O)[C@H](CCCNC(=N)N)NC(=O)[C@H](CC(C)C)NC(=O)[C@H](CC(N)=O)NC(=O)[C@@H](C)NC(=O)[C@H](C)N(C)C(=O)[C@H](C(C)C)NC(=O)[C@H](Cc2ccc(-c3ccccc3)cc2)NC1=O [Compound 1789] ({CH2CO}-FYDWL[Bip]V[NMeA][dA]NLRTCA-NH2; thioether N-14) in the records?
0.12

---

- system-tested: PE-labeled human PD-L1-Ig binding to Jurkat cell line over-expressing human PD-1 (Jurkat-PD-1) (Homo sapiens, UniProt Q15116)
- Construct: expressed in transfected cells; host or cells: Jurkat
- experimental-protocol: Jurkat-PD-1 Cell Binding High-Content Screening Assay (CBA): Method 1
- run-conditions: Jurkat-hPD-1 cells, PE-labeled PD-L1-Ig 20 nM final; read-out: Jurkat HPDL1 PD1 IC50 (uM) (Method 1)
Bridge positions count the residues as written; N and C are the ends. Square brackets hold non-standard residues; d marks the D form. Peptide text beside a SMILES is read from it. Bip = N[C@@H](Cc1ccc(-c2ccccc2)cc1)C(=O)O; mTyr = N[C@@H](Cc1cccc(O)c1)C(=O)O; Cit = NC(=O)NCCC[C@H](N)C(=O)O; NMeA = CN[C@@H](C)C(=O)O
measured-endpoint: IC50 (µM)
Your answer is read as µM, so omit the unit and give the number.

compound="CC(C)C[C@@H]1NC(=O)[C@H](CCCNC(=N)N)NC(=O)[C@@H](CC(C)C)NC(=O)[C@H](C)N(C)C(=O)[C@H](CCCNC(N)=O)NC(=O)[C@H](Cc2ccc(-c3ccccc3)cc2)NC(=O)[C@H](C(C)C)NC(=O)[C@H](Cc2c[nH]c3ccccc23)NC(=O)[C@H](CC(=O)O)NC(=O)[C@H](Cc2ccc(O)cc2)NC(=O)[C@H](CC(N)=O)NC(=O)CSC[C@@H](C(=O)N[C@@H](C)C(N)=O)NC(=O)[C@H](CO)NC(=O)[C@H](C(C)C)NC1=O [Compound 1227] ({CH2CO}-NYDWV[Bip][Cit][NMeA][dL]RLVSCA-NH2; thioether N-14)" value_observed=0.04

Which value of IC50 has been reported for CC(C)C[C@@H]1NC(=O)[C@H](Cc2c[nH]c3ccccc23)NC(=O)[C@H](CC(=O)O)NC(=O)[C@H](Cc2cccc(O)c2)NC(=O)[C@H](Cc2ccccc2)NC(=O)CSC[C@@H](C(=O)N[C@@H](C)C(N)=O)NC(=O)[C@H](CO)NC(=O)[C@H](C(C)C)NC(=O)[C@H](CC(C)C)NC(=O)[C@H](CC(N)=O)NC(=O)[C@@H](C)NC(=O)[C@H](C)N(C)C(=O)[C@H](C(C)C)NC(=O)[C@H](Cc2ccc(-c3ccccc3)cc2)NC1=O [Compound 1765] ({CH2CO}-F[mTyr]DWL[Bip]V[NMeA][dA]NLVSCA-NH2; thioether N-14) in the records?
0.04

Reference source for all entries: patent US20240409585A1
